Hello, the source for this data is patent US20140287419A1, in case you need it.

assay: 14C assay with IPTG-induced recombinant E. coli cells (14CO2 capture from [14C]-carboxyl-labeled dicamba); conditions: IPTG-induced recombinant E. coli cells; [14C]-carboxyl-labeled dicamba; 14CO2 capture
parameter: Dicamba Decarboxylase Activity

>>> reportedresult("98 (protein, Xanthomonas campestris pv.) MAIIDCHGHYTTAPAAHDAFRKAQIAHHDDPQQPAPQYPHISDDALRESIEQHQLRLLRERGADMTIFSPRASTMAHHIGNEAVSQVWTQRCNDLIARVVQLYPHTFIGVCQLPQSPGVPISHSIAELERCVNELGFVGCNLNPDPSGGHWNGVPLTDRAWYPFFEKMVELDVPAMVHVSGSCNANFHATGAHYLNADTTAFMQFLEGDLFRDFPSLRFIIPHGGGAVPYHWGRFRGLADMLGKPPLATHVMRNVFFDTCVYHQPGIDLLFEVIDIDNILFGSEMVGAVRGIDPQTGHYFDDTKRYIDALTISDADKRKVFEGNARRVYPRLDAQLRARGL")
"No"
